study_target: SMYD2 (Homo sapiens (Human))
Sequence (Q9NRG4 whole entry): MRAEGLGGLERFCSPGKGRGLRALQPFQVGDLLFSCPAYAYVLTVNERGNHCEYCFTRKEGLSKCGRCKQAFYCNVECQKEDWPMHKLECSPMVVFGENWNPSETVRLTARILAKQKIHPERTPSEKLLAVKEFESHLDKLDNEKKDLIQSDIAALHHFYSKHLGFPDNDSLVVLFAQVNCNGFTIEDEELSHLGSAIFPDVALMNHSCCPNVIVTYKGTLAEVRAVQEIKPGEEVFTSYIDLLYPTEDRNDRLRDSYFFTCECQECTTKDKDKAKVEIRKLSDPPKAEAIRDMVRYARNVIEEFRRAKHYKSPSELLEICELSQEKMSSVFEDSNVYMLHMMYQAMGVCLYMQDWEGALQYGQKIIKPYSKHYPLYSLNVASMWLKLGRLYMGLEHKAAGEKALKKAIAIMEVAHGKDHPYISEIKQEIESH
protocol_description: SMYD2 biochemical assay (SMYD2 enzyme assay on peptide substrate, 3H-SAM Flashplate)
condition_set: read-out: SMYD2 Biochem IC50; IC50 values are an average of n = 1 to n = 50
pIC50: −log10 of the molar value.
# cutoff 6 applies to pIC50; >= gives Fulfilled, < gives Not fulfilled

Q: Can CC(c1cccc(OCC(O)CO)c1Cl)N1CC(NC(=O)c2cn(C3CC3)nn2)C1 (stereo not drawn) be said to have pIC50 at or above 6?
Ans: Not fulfilled

Q: Is pIC50 at least 6? Consider CNC1CCOC(CN2CC(NC(=O)c3cn(C4CC4)nn3)C2)C1 (stereo not drawn)
Ans: Not fulfilled

Q: Determine whether this molecule has pIC50 no lower than 6: CNC1CCCC(C(=O)Nc2cc(O)c3c(c2)OCC(=O)N3)C1 (stereo not drawn)
Ans: Not fulfilled

Q: I'd appreciate it if you could say whether `O=C(NC1CN(Cc2cnn(Cc3ccccc3)c2)C1)c1ncc(C2CC2)[nH]1` has pIC50 at least equal to 6.
Ans: Not fulfilled

Q: Can `CN1[C@@H]2CC[C@H]1C[C@H](NC(=O)c1cc(C3CC3)cnn1)C2` be said to have pIC50 at or above 6?
Ans: Not fulfilled

Q: Quick check: does O=C(NC1CN(Cc2ccccc2)C1)c1cn(C2CC2)nn1 [compound 671] have pIC50 greater than or equal to 6?
Ans: Not fulfilled

Q: Please check the record `COCCOc1ccc(CN2CC(NC(=O)c3cn(C4CC4)nn3)C2)cc1` and state if its pIC50 is at or above 6.
Ans: Not fulfilled

Q: Hello, I need to know if COc1ccc(C(C)N2CC(NC(=O)c3cn(C4CC4)nn3)C2)c(Cl)c1 (stereo not drawn) [compound 1002] has measured pIC50 not below 6. Thanks!
Ans: Fulfilled

Q: # check: pIC50 of `O=C(NC1CN(Cc2cnn(Cc3ccc(C(F)(F)F)cc3)c2)C1)c1cn(C2CC2)nn1` is greater than or equal to 6
Ans: Fulfilled

Q: Is the recorded value of pIC50 equal to or greater than 6 for this molecule? `CCn1cc(CN2CC(NC(=O)c3cn(C4CC4)nn3)C2)cn1`
Ans: Not fulfilled

Q: Is reported pIC50 greater than or equal to 6 here: COc1cnc(C(C)N2CC(NC(=O)c3cn(C4CC4)nn3)C2)nc1 (stereo not drawn)
Ans: Not fulfilled

Q: API: above_or_equal(metric=pIC50, cutoff=6) for item `O=C(NC1CN(Cc2cnn(Cc3ccccc3Cl)c2)C1)c1cn(C2CC2)nn1`
Ans: Fulfilled

Q: Determine whether this molecule has pIC50 no lower than 6: COc1ccc(C(F)(F)F)cc1C(C)N1CC(NC(=O)c2cn(C3CC3)nn2)C1 (stereo not drawn)
Ans: Not fulfilled

Q: # check: pIC50 of `O=C(NC1CN(CCCO)C1)c1cn(C2CC2)nn1` is greater than or equal to 6
Ans: Not fulfilled

---

study_target: UniProt Q9NRG4
protocol_description: SMYD2 biochemical assay (SMYD2 enzyme assay on peptide substrate, 3H-SAM Flashplate)
condition_set: read-out: SMYD2 Biochem IC50; IC50 values are an average of n = 1 to n = 50
Classify by IC50. Ranges: interval 1 = under 800 nM, interval 2 = from 800 nM up to 2000 nM, interval 3 = 2000 nM and over

Q: Into which category would you place CC(NC(=O)c1cn(C2CC2)nn1)C1CCCCN1C (stereo not drawn) [compound 979] ?
Ans: interval 3

Q: Sort NC(=O)c1cccc(CN2CC(NC(=O)c3cn(C4CC4)nn3)C2)c1 [compound 727] into one of the categories.
Ans: interval 3

Q: Class? Entry: O=C(NC1CN(Cc2cnn(Cc3cccc(Cl)c3)c2)C1)c1cn(C2CC2)nn1 [compound 987]
Ans: interval 1

Q: Which of the defined bands does the recorded IC50 of COc1ccc(C(C)N2CC(NC(=O)c3cn(C4CC4)nn3)C2)c(OC)c1 (stereo not drawn) [compound 801] sit within?
Ans: interval 2

Q: Band for CN(C)CCCN1CC(NC(=O)c2cn(C3CC3)nn2)C1 [compound 708] ?
Ans: interval 3

Q: Returns: class label. Input: CNCCOc1cccc(CN2CC(NC(=O)c3cn(C4CC4)nn3)C2)c1 [compound 735]
Ans: interval 3

Q: Please let me know in which category the item O=C(NC1CN(Cc2ccc(OCc3ccccc3)cc2)C1)c1cc(C2CC2)ccn1 [compound 967] belongs.
Ans: interval 1

Q: For COCCn1cc(CN2CC(NC(=O)c3cn(C4CC4)nn3)C2)cn1 [compound 717] , which IC50 bin applies?
Ans: interval 3

Q: Which class is correct for the following molecule? CC(c1ccccc1F)N1CC(NC(=O)c2cn(C3CC3)nn2)C1 (stereo not drawn) [compound 678]
Ans: interval 2

Q: // bin(item) where item = O=C(NC1CN(Cc2cnn(Cc3ccccc3)c2)C1)c1cn(C2CC2)cn1 [compound 1022]
Ans: interval 1

Q: # bin label for COc1ccc(C(C)N2CC(NC(=O)c3cn(C4CC4)nn3)C2)nc1 (stereo not drawn) [compound 923]
Ans: interval 3

Q: Category of CNC(=O)c1ccc(COc2ccc(C(C)N3CC(NC(=O)c4cn(C5CC5)nn4)C3)cc2)cc1 (stereo not drawn) [compound 963] , please.
Ans: interval 2

Q: Any idea which band Cn1cc(COc2ccc(CN3CC(NC(=O)c4cn(C5CC5)nn4)C3)cc2)cn1 [compound 1025] is in?
Ans: interval 2

Q: Band of COc1c(CN)cccc1CN1CC(NC(=O)c2cn(C3CC3)nn2)C1 [compound 794] ?
Ans: interval 3

Q: Please report the category associated with O=C(NC1CN(Cc2ccc(C(O)Cc3ccccc3)cc2)C1)c1cn(C2CC2)nn1 (stereo not drawn) [compound 983] , nothing else.
Ans: interval 2

Q: Please indicate the class for COc1ccc(Cn2cc(CN3CC(NC(=O)c4cn(C5CC5)nn4)C3)cn2)cc1 [compound 932] based on its IC50.
Ans: interval 1

Q: Classify this molecule: CN1CCC(NC(=O)c2cc(C3CC3)cnn2)CC1 [compound 917]
Ans: interval 3
